Test system: DMS 273 small cell lung
procedureText: NCI tumour cell line growth inhibition, 48 h

{"compound": "CSCC(COC(C)=O)(CSC)c1ccncc1", "TGI": "> 100 µM"}
{"compound": "Cc1cc(Cl)ccc1Nc1nc2c(s1)C(=O)c1ccccc1C2=O", "TGI": "5.71 µM"}
{"compound": "COc1cccc2c1C(=O)c1c(O)c3c(c(O)c1C2=O)CC(O)(C(C)=O)CC3O (configuration not stated)", "TGI": "15.6 µM"}
{"compound": "Cc1cc2c(C)nn(Cc3ccccc3Cl)c2c(C#N)c1C", "TGI": "> 100 µM"}
{"compound": "COc1ccc(/C=C(\\C2=NC(=O)CS2)c2nc3ccccc3[nH]2)cc1", "TGI": "> 100 µM"}
{"compound": "C[C@H]1CCC2C(CN3CCCCC3)C(=O)OC2[C@]2(C)C(=O)CC(N3CCCCC3)C12O (some centres not stated)", "TGI": "23.4 µM"}
{"compound": "N/C(=N/N=C/c1cccc(F)c1)NO", "TGI": "> 100 µM"}
{"compound": "CCOC(=O)Cn1c(=O)[nH]c(=O)c2[nH]cnc21", "TGI": "> 100 µM"}
{"compound": "COc1ccc(C2NC3=C(CCCC3)N2)cc1", "TGI": "> 100 µM"}
{"compound": "COC(=O)CC1NC(=O)C1C(C)(OC)OC (configuration not stated)", "TGI": "> 100 µM"}
{"compound": "C=C1CCC2(C(C)=O)COC1(C)O2 (configuration not stated)", "TGI": "> 100 µM"}
{"compound": "C1=CC(=NN=P(c2ccccc2)(c2ccccc2)c2ccccc2)C=C1", "TGI": "> 100 µM"}
